Test system: SK-MEL-28
Experiment: NCI tumour cell line growth inhibition, 48 h
Active and inactive are the calls of the source. Rule as the data show it: active = GI50 up to about 1.1 µM and inactive = higher.
measured-endpoint: GI50

compound: COc1ccc(CSC2=C(C#N)C(=O)NC3(CCCCC3)S2)cc1
measured-endpoint: GI50
result: > 73.6 µM (inactive)
--
compound: CC(C)OP(=O)(OC(C)C)c1nc(-c2ccccc2)n(-c2ccc([N+](=O)[O-])cc2)n1
measured-endpoint: GI50
result: > 100 µM (inactive)
--
compound: COC(=O)/C=C/c1ccccc1N=[S@](C)(=O)c1ccc(C)cc1
measured-endpoint: GI50
result: 16.4 µM (inactive)
--
compound: CCOC(=O)C1Nc2ccc([N+](=O)[O-])cc2[C@H]2OCC[C@@H]12 (stereo not given in full)
measured-endpoint: GI50
result: > 100 µM (inactive)
--
compound: O=C(NO)C12C3C4C1C1C2C3C41C(=O)NO (stereo not given)
measured-endpoint: GI50
result: > 100 µM (inactive)
--
compound: COc1ccc(O)c(/C=N/NC(=S)N2CCCCC2)c1
measured-endpoint: GI50
result: 3.17 µM (inactive)
--
compound: C/C(CC(O)(C(F)(F)F)C(F)(F)F)=N\NC(N)=O
measured-endpoint: GI50
result: > 10 µM (inactive)
--
compound: C=C(C)c1cc(C(C)(C)C)cc(C(=C)C)c1S(C)(=O)=O
measured-endpoint: GI50
result: > 100 µM (inactive)
--
compound: CC(=O)NNc1nc(C)c(C(/C=C/c2ccc3c(c2)OCO3)=N/Nc2ccccc2)s1
measured-endpoint: GI50
result: > 100 µM (inactive)
--
compound: Cc1ccc(/C(=C\C(=O)C(=O)NC23CC4CC(CC(C4)C2)C3)Sc2ccccc2)cc1
measured-endpoint: GI50
result: > 10 µM (inactive)
